system-under-test: human MMP-9 (Homo sapiens, UniProt P14780)
Construct: purchased Yagai, Japan
Sequence (P14780 94-707): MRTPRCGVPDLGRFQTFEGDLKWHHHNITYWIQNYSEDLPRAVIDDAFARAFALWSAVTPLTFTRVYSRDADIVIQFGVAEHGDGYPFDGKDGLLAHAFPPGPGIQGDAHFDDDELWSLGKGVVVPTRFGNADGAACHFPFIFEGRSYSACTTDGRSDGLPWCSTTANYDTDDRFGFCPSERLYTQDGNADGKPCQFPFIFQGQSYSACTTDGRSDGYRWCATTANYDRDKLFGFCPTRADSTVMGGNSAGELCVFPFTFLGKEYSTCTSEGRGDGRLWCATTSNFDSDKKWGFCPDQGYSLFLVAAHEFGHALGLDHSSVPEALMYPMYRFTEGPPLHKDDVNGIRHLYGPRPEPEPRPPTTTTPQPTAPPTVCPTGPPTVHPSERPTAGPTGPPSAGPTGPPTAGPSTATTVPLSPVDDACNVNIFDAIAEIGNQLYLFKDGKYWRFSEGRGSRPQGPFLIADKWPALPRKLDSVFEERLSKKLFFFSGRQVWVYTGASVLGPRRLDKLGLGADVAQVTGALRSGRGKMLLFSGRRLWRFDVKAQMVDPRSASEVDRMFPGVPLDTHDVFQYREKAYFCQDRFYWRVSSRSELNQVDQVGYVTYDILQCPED
assay-protocol: Inhibitory activity of human MMP-9 (commercial kit, degradation of FITC-labeled bovine type IV collagen)
Assay type: biochemical
measurement-parameters: incubation 4 hours at 42° C.
Procedure: Inhibitory Activity of Human MMP-9 The inhibitory activity of test compounds against human MMP-9 were measured by using commercial kits (Yagai, Japan). Gelatinolytic activity was determined by monitoring the degradation of FITC-labeled bovine type IV collagen after incubation for 4 hours at 42° C. The amount of degraded collagen was estimated by measuring the fluorescence intensity at 495 nm (excitation) and 520 nm (emission). Inhibitory activity of human MMP-9 as mentioned above.
value-type: IC50 (nM)

Qu. Item under review: "O=C(O)C[C@]1(c2ccc(-c3cc4ccc(F)cc4s3)s2)CCCCS1(=O)=O" . Reported IC50?
Ans. 1.37

1: O=C(O)C[C@]1(c2ccc(C#Cc3ccc(Cl)cc3)s2)CCCCS1(=O)=O
2: O=C(O)C[C@]1(c2ccc(-c3ccc(-c4cnco4)cc3)s2)CCCCS1(=O)=O
3: COc1ccc2sc(-c3ccc([C@@]4(CC(=O)O)CCCCS4(=O)=O)s3)cc2c1
4: O=C(O)C[C@]1(c2ccc(-c3ccc(-c4ccsc4)cc3)s2)CCCCS1(=O)=O
Qu. Hey, quick one: sort these by IC50, low to high? Form field (ranking): labels in requested order.
Ans. 4, 3, 1, 2
(4: 2.77 nM, 3: 4.56 nM, 1: 7.17 nM, 2: 16 nM)

This collection of values is drawn from patent US20040266826A1.
